Tested on: K-562 leukemia
Assay: NCI-60 one-dose screen, 48 h
Conditions: 10 µM unless noted
Procedure: Cells are grown in 96 well plates and exposed to the test compound for 48 hours. Compounds are tested at a single concentration, which is 10^-5 M for most compounds. The reported endpoint is percent growth (GI% or GIPRCNT), where numbers from 0 - 100% represent growth inhibition, and numbers from -100% - 0 represent cell death. For example, a value of 40 represents 60% growth inhibition. A value of 0 means no net growth occurred over the course of the experiment. […]
Compounds without any hit were thinned out: in the full panel of roughly 83,000, 20% have a hit. The source made the active and inactive calls. Rule for the calls: active = growth percent below 10; inactive = the rest.
Valid outcomes are listed here; reply with one: active, inactive

                                   molecule  qualitative_label
0  COc1cc(-c2nc3sc4c(c3c(=O)[nH]2)CCCCCC4)cc(OC)c1OC             active
1  Nc1nc2c(c(=O)[nH]1)C1(C(=O)Nc3ccccc31)c1c(nc(N)[nH]c1=O)N2           inactive
2        COc1cc(/C=C\C(C)=N\Nc2ccccc2)ccc1O           inactive
3  COc1ccc(C2=NN(C=O)C(c3cccc(Nc4ccnc5cc(Cl)ccc45)c3)C2)cc1 (stereo not drawn)             active
4  O=C1C(=O)/C(=C/c2ccccc2)CCCCCC/C1=C/c1ccccc1             active
5              Cc1ccc(C(=O)Cc2ccccc2)c(O)c1           inactive
6  COc1cc(/C=N/NC(=O)c2ccc(C(F)(F)F)nc2Nc2ccc(Cl)cc2C)ccc1O           inactive
7  CC1c2ccccc2-c2ccccc2N1C (stereo not drawn)           inactive

*Q* Outcome logged for O=C1/C=C/[C@@H](O)[C@@H]2C[C@@H](O)C[C@H]2/C=C/CCC[C@H](CO)O1 in this assay:
*A* inactive

*Q* Please indicate how the test categorized COc1ccc(CNC(=O)c2c(C)n([O-])c3ccccc3[n+]2=O)cc1 .
*A* inactive

*Q* Which result was noted for this molecule in the test: COc1ccc(C2CC(c3ccc4c(c3)OCO4)=NN2C=O)cc1 (stereo not drawn)
*A* inactive

*Q* What classification did COc1cc(/C=C/c2cc(/C=C/c3ccc(O)c(OC)c3)n(C(=O)Cc3ccccc3)n2)ccc1O end up with in this test?
*A* active

*Q* Call for entry Cc1cc(=O)[nH]c(/C(=N/Nc2ccccc2)C(=O)c2ccc(Cl)cc2)n1 :
*A* inactive

*Q* What call does the record list for COc1cc(/C=C/c2cc(/C=C/c3ccc(O)c(OC)c3)n(C(=O)c3ccc(Cl)cc3)n2)ccc1O ?
*A* active

* * *

test system: SK-MEL-2 melanoma; assay: NCI-60 one-dose screen, 48 h; details: 10 µM unless noted
Compounds without any hit were thinned out: in the full panel of roughly 83,000, 20% have a hit. Calls of active or inactive are those of the source. The calls were made as follows: active = growth percent below 10; inactive = the rest.
Outcome field: choose from yes (1) (active), no (0) (inactive)

                                   molecule  qualitative_label
0  COc1ccc(-c2nc3sc4c(c3c(=O)[nH]2)CCCCCC4)cc1             no (0)
1  O=C(N/N=C/c1cccc(O)c1)c1ccc(C(F)(F)F)nc1Nc1cccc(C(F)(F)F)c1             no (0)
2  CC(=O)O[C@H]1CC[C@@]2(C)C(=CC[C@@H]3[C@@H]2CC[C@]2(C)C(c4cccnc4)=CC[C@@H]32)C1             no (0)
3  COc1ccc(-c2ccc(O)c(C(=O)/C=C/c3cc(OC)c(OC)c(OC)c3)c2)cc1             no (0)
4  O=[N+]([O-])c1ccc2[nH]cc(-c3c4ccccc4cc4[nH]c5ccc([N+](=O)[O-])cc5c34)c2c1            yes (1)

Let us examine a further case.
*Q* For CCN(CC)c1ccc(/C=C/C(=O)c2cccc(NS(C)(=O)=O)c2)cc1 , what call appears in the results of this test?
*A* no (0)

* * *

test system: SF-295 CNS; test: NCI-60 one-dose screen, 48 h; details: 10 µM unless noted
This is part of a sample that, as a whole, favours compounds with a hit. Of some 83,000 tested, about 20% had one in any assay. The source made the active and inactive calls. The calls were made as follows: active = growth percent below 10; inactive = the rest.
Answer with one of the outcomes given here: yes for active, no for inactive

>>> df
                                   compound  experimental_target  qualitative_label
0          CCC(=O)Nc1cc2c(cc1Cl)-c1ccccc1C2           SF-295 CNS                 no
1  N#Cc1ncc(-c2ccc(C(F)(F)F)cc2)c(NC2CCCCCC2)n1           SF-295 CNS                yes
2  CCOC(=O)/C(=C/CC/C(C)=C/CC/C(C)=C/CCc1ccoc1)CC(=O)N1CCCCC1           SF-295 CNS                 no
3                        Cc1cc(Br)c(C)cc1Br           SF-295 CNS                 no
4  FCc1ncc(-c2ccc(C(F)(F)F)cc2)c(NC2CCCCCC2)n1           SF-295 CNS                yes
5  CCOC(=O)N1CCC(N=C2CSc3nnc(-c4cc(C(F)(F)F)cc(C(F)(F)F)c4)n3N2)CC1           SF-295 CNS                 no

*Q* Per the assay record, what outcome was assigned to NS(=O)(=O)N(c1cc(C(F)(F)F)cc(C(F)(F)F)c1)C1CCN(Cc2ccc(C(F)(F)F)cc2)CC1 ?
*A* no

*Q* I would be grateful if you could indicate the recorded call for Cc1ccc2nc(SCC(=O)Nc3ccc(-c4nc5ccccc5s4)c(Cl)c3)[nH]c2c1 .
*A* no

*Q* Write down the call the test reported for this compound. Item: C(=C1c2ccccc2-c2ccccc21)c1ccncc1
*A* no

*Q* Identify the outcome logged in this assay for the compound shown: CC(=O)N1N=C(c2ccc(Cl)cc2)CC1c1c(C)nn(-c2ccccc2)c1N(C)Cc1ccccc1 (stereo not given)
*A* no

* * *

tested on: EKVX NSCLC; assay: NCI-60 one-dose screen, 48 h (100 = growth as untreated, 0 = no growth, -100 = all killed); conditions: 10 µM unless noted
This is part of a sample that, as a whole, favours compounds with a hit. Of some 83,000 tested, about 20% had one in any assay.
I'd appreciate it if you marked entries criterion met when growth is lower than 70% and criterion not met when it is not.

compound	experimental-target	qualitative-label
CCN(CC)c1ccc(N=C2C=CC(=O)C=C2NC(C)=O)cc1	EKVX NSCLC	criterion not met

*Q* # TODO verify growth < 70% strictly for this compound: O=C(O)C1CCN(S(=O)(=O)c2ccc(-c3ccccc3)cc2)CC1
*A* criterion not met

*Q* growth strictly < 70% for this compound? Cc1cc(=O)oc2cc(OCCn3c(C)nn(-c4ccc(Cl)cc4)c3=O)ccc12
*A* criterion met

*Q* Below 70% on growth? Entry C[C@]12CCC(=O)C=C1CC[C@H]1[C@@H]3C[C@@H](O)[C@](O)(C(=O)CO)[C@@]3(C)C[C@H](O)[C@@]12F
*A* criterion not met

*Q* Just wondering, is growth of CC(=O)Nc1cc2c3c(cccc3c1)-c1ccccc1-2 below 70%?
*A* criterion met

*Q* Hi there! Is growth for CC1c2ccccc2-c2ccccc2N1C (stereo not drawn) below 70%, do you know?
*A* criterion not met

*Q* Is 70% strictly greater than the compound's reported growth? compound: O=C(/C=C/c1ccc([N+](=O)[O-])cc1)c1ccc2c3c(cccc13)CC2
*A* criterion not met

*Q* A record lists Cc1[nH]cnc1/C=C1\SC(N2CCCCC2)=NC1=O . Is its growth below 70%?
*A* criterion not met

*Q* Say whether its growth is strictly beneath 70%. Entry: ICCC(c1ccccc1)(c1ccccc1)c1ccccc1
*A* criterion not met

*Q* State whether 70% exceeds growth recorded for O=[N+]([O-])c1ccc2[nH]cc(-c3c4ccccc4cc4[nH]c5ccc([N+](=O)[O-])cc5c34)c2c1 .
*A* criterion met

* * *

test system: SK-MEL-2 melanoma; assay: NCI-60 one-dose screen, 48 h (100 = growth as untreated, 0 = no growth, -100 = all killed); conditions: 10 µM unless noted
The panel holds about 83,000 compounds, 20% with a hit somewhere; the sample as a whole holds those more often.
reported-endpoint: growth (%)
Unit % implied. Number only.

Take a look at these entries with their results.
>>> print(df.to_string())
                                   compound  experimental_target  reported_endpoint  unit_of_measure  meas_value
0  COc1ccc(-c2c3c(N)nc(-c4ccncc4)nc3nc3c2c(C)nn3-c2ccccc2)cc1    SK-MEL-2 melanoma             growth                %        48.1
1            Oc1c(N=Nc2nn[nH]n2)ccc2ccccc12    SK-MEL-2 melanoma             growth                %         107
2    C/C(=C\CCc1ccoc1)CC/C=C(\C)CCCN1CCOCC1    SK-MEL-2 melanoma             growth                %        78.7
3       CC(=O)Nc1c(Cl)cc2c(c1Cl)Cc1ccccc1-2    SK-MEL-2 melanoma             growth                %        93.8
4  C/C(=C\CCc1ccoc1)CC/C=C(\C)CCCNc1ccc(F)cc1    SK-MEL-2 melanoma             growth                %         106

*Q* So what does the record say about growth for O=C(N/N=C/c1ccc(Cl)cc1Cl)c1ccccc1Nc1cccc(C(F)(F)F)c1 ?
*A* 54.9

*Q* Returns the measured growth for the input compound. Input: C=CCNC(=O)/C(=C/c1cccc([N+](=O)[O-])c1)NC(=O)c1ccccc1
*A* 18.9

*Q* # lookup: growth of CCOC(=O)/C(=C/CC/C(C)=C/CC/C(C)=C/CCc1ccoc1)CC(=O)N1CCCCC1
*A* -19

*Q* I have this compound here, CN1CCN(c2nc3scc(-c4ccccc4)c3c(=O)[nH]2)CC1 , and I need its recorded growth.
*A* 104

*Q* Please look up its growth: COc1cc(C2CC(c3ccc(C)cc3)=NN2C=O)ccc1OCCN(C)C (stereo unspecified)
*A* 98.4

*Q* Which growth is listed for Cc1ccc(-c2csc(N)n2)cc1 ?
*A* 107
